- SYSTEM: HA of A/Hong Kong/1/1968 (H3N2) virus (Influenza A virus (H3N2), UniProt Q91MA7 17-566)
- RUN_DESCRIPTION: cell-based or functional assay
MEASURED_ATTRIBUTE: HAI activity (µg/mL)
Response body: numeric value in µg/mL, unit text excluded.

Given item mAb 7A13 (antibody, V domains shown) VH: QVQLQESAPGLVKPSGTLSLTCAVSGASLSSSDWWTWVRQPPGKGLEWIGEIHHGGSTNSNPSLQSRVTISIDKSKKQFSLKLTSVTVADTAVYYCARAPGADAGPYSENIHHWGQGTLVTVS VL: QLVLTQSPSASASLGASVKLTCTLSSRHSDYAIGWHQQQPGKGPRYLMKLNPDGSHTKGDGIPDRFSGSSSGAERYLTISNLLSEDEADYYCQTWGTGIQVFGGGTRLTVIS , the value recorded as its HAI activity is 0.7
